Molecular target: Amine oxidase [flavin-containing] B (Homo sapiens, UniProt P27338)
Sequence (P27338 whole entry): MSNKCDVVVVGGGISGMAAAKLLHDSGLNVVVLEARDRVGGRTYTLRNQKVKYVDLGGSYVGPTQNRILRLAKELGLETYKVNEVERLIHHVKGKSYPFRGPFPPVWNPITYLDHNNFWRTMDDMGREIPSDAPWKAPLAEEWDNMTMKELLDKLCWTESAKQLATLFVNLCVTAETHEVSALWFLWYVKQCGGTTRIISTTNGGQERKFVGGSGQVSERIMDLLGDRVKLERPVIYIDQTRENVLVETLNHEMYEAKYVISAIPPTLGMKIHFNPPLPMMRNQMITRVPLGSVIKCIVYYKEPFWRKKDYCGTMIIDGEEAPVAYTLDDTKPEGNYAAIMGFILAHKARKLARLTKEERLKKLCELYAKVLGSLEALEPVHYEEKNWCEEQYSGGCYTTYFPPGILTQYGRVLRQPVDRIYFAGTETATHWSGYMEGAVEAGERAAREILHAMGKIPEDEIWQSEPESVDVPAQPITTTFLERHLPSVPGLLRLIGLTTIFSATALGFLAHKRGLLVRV
Assay: Inhibition of human MAO-B using benzylamine as substrate by fluorometric assay
Reported property: IC50 (µM)

> print(dat)
                              smiles.string                               measured.on  reported.property  endpoint.result
1  O=C1NC(=O)/C(=C/c2ccc(N3CCN(c4ccccc4)CC3)cc2)S1  Amine oxidase [flavin-containing] B (Homo sapiens, UniProt P27338)               IC50             6.73

I: C=CCN1C(=O)S/C(=C\c2ccc(N3CCN(c4ccc(F)cc4)CC3)cc2)C1=O
II: O=C1S/C(=C\c2ccc(N3CCN(c4ccccc4)CC3)cc2)C(=O)N1Cc1ccccc1
Query: Looking at I and II , which one comes out lower in IC50 terms? Kindly give the label for the entry you pick.
Result: I

The measurements presented in this section are drawn from ChEMBL document CHEMBL6115005.
